Assay Target: hCB2R (Homo sapiens)
Sequence (P34972 whole entry): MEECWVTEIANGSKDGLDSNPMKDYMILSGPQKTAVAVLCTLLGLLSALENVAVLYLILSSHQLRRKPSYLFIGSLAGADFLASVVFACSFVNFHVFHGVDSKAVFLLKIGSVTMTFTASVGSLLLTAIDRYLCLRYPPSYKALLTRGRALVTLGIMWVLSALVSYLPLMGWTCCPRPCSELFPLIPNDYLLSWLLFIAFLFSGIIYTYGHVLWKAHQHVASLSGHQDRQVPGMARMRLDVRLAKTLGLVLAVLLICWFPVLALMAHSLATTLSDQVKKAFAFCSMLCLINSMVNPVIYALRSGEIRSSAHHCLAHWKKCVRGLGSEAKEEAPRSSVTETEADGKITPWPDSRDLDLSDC
Parameters: expressed in transfected cells; host or cells: Flp-In-293 (Invitrogen #R750-07), pcDNA5/FRT
Condition Context: hCB2R
Below, each entry is listed with its recorded pERK-GIRK bias factor (BF).
Lab note: record the figure alone, no unit after it.

[[record]]
compound = "CCCCCCC(C)(C)c1cc(OC)c(C2=C[C@H]3CC[C@]2(CO)C3(C)C)c(OC)c1"
value_reported = 0.73

[[record]]
compound = "CCCCC/C=C\\C/C=C\\C/C=C\\C/C=C\\CCCC(=O)NCCO [Anandamide, N-arachidonoylethanolamine]"
value_reported = 2.14

[[record]]
compound = "CN1CCCCC1Cn1cc(C(=O)c2cc([N+](=O)[O-])ccc2I)c2ccccc21 (racemic) [(rac)-AM1241]"
value_reported = 95.72


// moving on: another record for pERK-GIRK bias factor (BF)
Task: For the record CN1CCCC[C@@H]1Cn1cc(C(=O)c2cc([N+](=O)[O-])ccc2I)c2ccccc21 [(R)-AM1241] , what value of pERK-GIRK bias factor (BF) is listed for hCB2R (Homo sapiens)?
Output: 29.32

----------
Assay Target: MAGL (Homo sapiens, UniProt Q99685)
Construct: expressed in transfected cells; host or cells: HEK293T (transient), membrane preparation
Sequence (Q99685 whole entry, species assumed): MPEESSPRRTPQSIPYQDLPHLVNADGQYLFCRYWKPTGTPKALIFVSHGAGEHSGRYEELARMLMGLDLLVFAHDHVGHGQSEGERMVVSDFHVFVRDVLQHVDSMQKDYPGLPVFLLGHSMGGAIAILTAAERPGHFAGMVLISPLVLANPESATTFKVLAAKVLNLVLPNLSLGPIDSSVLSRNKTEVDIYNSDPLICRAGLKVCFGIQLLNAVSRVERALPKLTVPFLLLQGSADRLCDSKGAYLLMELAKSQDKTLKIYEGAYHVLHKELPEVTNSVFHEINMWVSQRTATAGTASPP
Assay Comment: Biochemical MAGL activity assay
Condition Context: read-out: MAGL % inhibition at 10 µM ± SD
Below, each entry is listed with its recorded inhibition at 10 µM.
Field: numeric (%). Do not append units.

Please review the entries below; each comes with its answer.
[[record]]
compound = "CCCCCCC(C)(C)c1ccc([C@@H]2C[C@H](O)CC[C@H]2CCCO)c(O)c1"
value_reported = 5

[[record]]
compound = "CCCCC/C=C\\C/C=C\\C/C=C\\C/C=C\\CCCC(=O)NCCO [Anandamide, N-arachidonoylethanolamine]"
value_reported = -2


Task: Consider the compound CCCCC/C=C\C/C=C\C/C=C\C/C=C\CCCC(=O)OC(CO)CO and give its measured inhibition at 10 µM.
Output: 3

Task: Consider the compound Cc1c(C(=O)NN2CCCCC2)nn(-c2ccc(Cl)cc2Cl)c1-c1ccc(Cl)cc1 [SR141716A] and give its measured inhibition at 10 µM.
Output: 4

Task: Consider the compound CCCCCCC(C)(C)c1cc(OC)c([C@@H]2C=C(CO)[C@@H]3C[C@H]2C3(C)C)c(OC)c1 and give its measured inhibition at 10 µM.
Output: 7

----------
Assay Target: Rat recombinant TRPV2 (Rattus norvegicus)
Construct: expressed in transfected cells; host or cells: HEK293 (plasmid a gift from HB Bradshaw, Indiana University)
Sequence (Q9WUD2 whole entry): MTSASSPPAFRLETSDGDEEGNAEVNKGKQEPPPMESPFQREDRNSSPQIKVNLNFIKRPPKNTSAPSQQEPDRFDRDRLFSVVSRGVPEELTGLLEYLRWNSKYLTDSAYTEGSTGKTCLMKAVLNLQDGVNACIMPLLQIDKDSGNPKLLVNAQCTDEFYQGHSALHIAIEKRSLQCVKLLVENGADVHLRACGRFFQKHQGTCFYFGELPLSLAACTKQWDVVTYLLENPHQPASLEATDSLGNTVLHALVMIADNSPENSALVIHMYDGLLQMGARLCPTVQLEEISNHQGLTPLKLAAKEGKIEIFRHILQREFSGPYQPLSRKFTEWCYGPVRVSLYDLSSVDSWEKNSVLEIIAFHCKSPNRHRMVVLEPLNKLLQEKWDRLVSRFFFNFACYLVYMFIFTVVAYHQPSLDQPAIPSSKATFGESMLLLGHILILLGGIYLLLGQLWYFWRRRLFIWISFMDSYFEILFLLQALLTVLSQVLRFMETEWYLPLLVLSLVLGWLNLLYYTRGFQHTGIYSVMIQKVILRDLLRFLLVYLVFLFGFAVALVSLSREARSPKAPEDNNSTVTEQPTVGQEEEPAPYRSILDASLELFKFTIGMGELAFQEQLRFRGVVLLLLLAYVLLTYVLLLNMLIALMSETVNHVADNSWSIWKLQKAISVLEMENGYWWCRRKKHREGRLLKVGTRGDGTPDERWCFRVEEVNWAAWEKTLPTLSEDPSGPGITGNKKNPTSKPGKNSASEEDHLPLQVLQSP
Assay Comment: cell-based
Assay type: cell-based
Below, each entry is listed with its recorded TRPV2 Efficacy (% ionomycin 4μM).

Task: Consider the compound Cc1c(C(=O)c2cccc3ccccc23)c2cccc3c2n1[C@H](CN1CCOCC1)CO3 [WIN55212-2] and give its measured TRPV2 Efficacy (% ionomycin 4μM).
Output: 17.0%

Task: Consider the compound CCCC(C)(C)c1ccc2c(c1)OC(C)(C)[C@@H]1CC=C(C)C[C@@H]21 [JWH133] and give its measured TRPV2 Efficacy (% ionomycin 4μM).
Output: < 10%

Task: Consider the compound Cc1c(C(=O)NN2CCCCC2)nn(-c2ccc(Cl)cc2Cl)c1-c1ccc(Cl)cc1 [SR141716A] and give its measured TRPV2 Efficacy (% ionomycin 4μM).
Output: < 10%

Task: Consider the compound CCCCCCC(C)(C)c1cc(OC)c([C@@H]2C=C(CO)[C@@H]3C[C@H]2C3(C)C)c(OC)c1 [HU308] and give its measured TRPV2 Efficacy (% ionomycin 4μM).
Output: < 10%

This collection of values is drawn from paper PMC5216056.
